# TARGET_SYSTEM: SARS-CoV-2 3CL protease (Severe acute respiratory syndrome coronavirus 2)
# PROCEDURE_SUMMARY: Inhibitory activity test against SARS-CoV-2 3CL proteases
# Assay type: biochemical
# DETAILS: read-out: IC50 (50% SARS-CoV-2 3CL protease inhibitory concentration)
pIC50: −log10 of the molar value.
Please provide measured pIC50 for the entries that follow.

Item under review: COc1nc(N2CC[C@@H](OC)C2)cc2c1c(=O)n(-c1cnc3cc(F)ccn13)c(=O)n2-c1ccc(F)c(Cl)c1 . Reported pIC50?
> 7.00

// pIC50 lookup, key: COc1nc(N2CC[C@@H](O)C2)cc2c1c(=O)n(-c1cncc(F)c1)c(=O)n2-c1ccc(F)c(Cl)c1
> 7.00

Can you share its pIC50? I mean this compound: COc1cc(-c2cc(CC(N)=O)ccc2Cl)cc2c1c(=O)n(-c1cncc(Cl)c1)c(=O)n2Cc1cc(Cl)ccc1C
> 7.00

Reported pIC50 for COc1cc(-c2cc3c[nH]nc3cc2Cl)cc2c1c(=O)n(Cc1ncn(C)n1)c(=O)n2Cc1cc(F)c(F)c(F)c1 : what is it?
8.03

Form field: reported pIC50 of COc1cc(-c2nc(C)ccc2Cl)cc2c1c(=O)n(Cc1ncn(C)n1)c(=O)n2Cc1cc(F)c(F)c(F)c1
> 7.00

Fill in the blank: the reported pIC50 of CNC(=O)c1ccc(Cl)c(-c2cc(OC)c3c(=O)n(-c4cncc(C)c4)c(=O)n(Cc4ccc(F)c(C#N)c4)c3c2)c1 is ____.
> 7.00

What value of pIC50 has been reported for the following compound? Cn1cnc(Cn2c(=O)c3c(=O)n(C)c(N4C[C@@H]5CC[C@H]4C5)cc3n(Cc3cc(F)c(F)c(Cl)c3)c2=O)n1
> 7.00

Fill in: pIC50 of COc1nc(N2CCC(F)(F)C2)cc2c1c(=O)n(-c1cncc(C#N)c1)c(=O)n2-c1ccc(F)c(Cl)c1 is ___
> 7.00

Look up pIC50: COc1nc(N2C[C@@H]3C[C@H]2CO3)cc2c1c(=O)n(-c1cnc3cc(F)ccn13)c(=O)n2-c1ccc(F)c(Cl)c1
> 7.00

Given the compound [2H]C([2H])([2H])O[C@@H]1CCN(c2cc3c(c(OC)n2)c(=O)n(-c2cnc4cc(F)ccn24)c(=O)n3-c2cc(Cl)c(F)c(OC)c2)C1 , what is its reported pIC50?
> 7.00

Would you kindly share the measured pIC50 for Cc1cncc(-n2c(=O)c3c(F)cc(-c4cc(C(N)=O)ccc4Cl)cc3n(Cc3ccc(F)c(C#N)c3)c2=O)c1 ?
> 7.00

// pIC50 lookup, key: COc1nc(-c2cc(C#N)ccc2Cl)cc2c1c(=O)n(-c1cncc(Cl)c1)c(=O)n2Cc1cc(F)c(F)c(F)c1
> 7.00

For the compound shown here, COc1cc(-c2cc(C(=O)NCCCO)ccc2Cl)cc2c1c(=O)n(-c1cncc(C)c1)c(=O)n2Cc1ccc(F)c(C#N)c1 , give the reported pIC50.
8.05

Recorded pIC50 for [2H]C([2H])([2H])O[C@@H]1CCN(c2cc3c(c(OC)n2)c(=O)n(-c2cnc4cc(F)ccn24)c(=O)n3-c2ccc(F)c(C(F)F)c2)C1 , please?
> 7.00

Entry under review: COc1cc(-c2cc(CO)ccc2Cl)cc2c1c(=O)n(Cc1ncn(C)n1)c(=O)n2Cc1cc(F)c(F)c(F)c1 . Reported pIC50?
> 7.00

Recorded pIC50 of Cn1cnc(Cn2c(=O)c3c4c(c(-c5cc(C#N)ccc5Cl)cc3n(Cc3cc(F)c(F)c(F)c3)c2=O)[C@H](O)CO4)n1 , please.
> 7.00

Suppose we examine the compound CCN(C)c1cc2c(c(OC)n1)c(=O)n(-c1cnc3cc(F)ccn13)c(=O)n2-c1ccc(F)c(Cl)c1 ; what pIC50 value has been reported?
> 7.00

// query pIC50 value for entry COc1cc(-c2cc3cn[nH]c3cc2Cl)cc2c1c(=O)n(-c1cncc(C)c1)c(=O)n2Cc1cc(F)c(F)c(C#N)c1
> 7.00

Quick one: pIC50 of COc1cc(-c2cc3cn[nH]c3cc2Cl)cc2c1c(=O)n(Cc1ncn(C)n1)c(=O)n2Cc1cc(F)c(F)c(F)c1F ?
7.96

Need pIC50 of [2H]C([2H])([2H])O[C@@H]1CCN(c2cc3c(c(OC)n2)c(=O)n(-c2cncc(OC(F)F)c2)c(=O)n3-c2ccc(F)c(Cl)c2)C1 , thanks.
> 7.00

GET /values?readout=pIC50&item= COc1nc2c(=O)n(Cc3ncn(C)n3)c(=O)n(Cc3cc(F)c(F)c(Cl)c3)c2cc1-c1cc2c(cc1Cl)NC(=O)C2
9.04

# get_value(readout='pIC50', item= Cn1cnc(Cn2c(=O)c3c4c(c(-c5ncc(F)cc5Cl)cc3n(Cc3cc(F)c(F)c(Cl)c3)c2=O)CCO4)n1 )
> 7.00

So what's the measured pIC50 for this one? Cn1cnc(Cn2c(=O)c3c4c(c(-c5cc(C#N)ccc5Cl)cc3n(Cc3cc(F)c(F)c(F)c3)c2=O)CCCO4)n1
8.04

Give the measured pIC50 of Cn1cnc(Cn2c(=O)c3c4c(c(-c5cc(C#N)ccc5Cl)cc3n(Cc3cc(F)c(F)c(Cl)c3)c2=O)CCO4)n1 .
> 7.00

Field request: pIC50 | item: COc1nc2c(=O)n(Cc3ncn(C)n3)c(=O)n(Cc3cc(C#N)c(F)cc3Cl)c2cc1-c1cc(C#N)ccc1Cl
> 7.00
